Biological target: GTPase KRas [G12D] (Homo sapiens, UniProt P01116, G12D)
Sequence (P01116 whole entry G12D): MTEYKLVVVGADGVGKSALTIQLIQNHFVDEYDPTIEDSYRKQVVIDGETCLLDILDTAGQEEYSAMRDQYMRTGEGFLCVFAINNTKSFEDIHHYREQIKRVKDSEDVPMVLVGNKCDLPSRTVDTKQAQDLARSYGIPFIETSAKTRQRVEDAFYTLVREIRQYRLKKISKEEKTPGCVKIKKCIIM
observable: IC50

CCn1c(-c2cccnc2[C@H](C)OC)c2c3cc(ccc31)-c1cc(O)cc(c1)C[C@H](NC(=O)C1[C@H]3COC[C@@H]13)C(=O)N1CCC[C@H](N1)C(=O)OCC(C)(C)C2 (stereo not given in full) [US20250195521, Example A253]
> 10 µM
